Listed below: CB1 calcium assay Agonist screen (% CP55, 940 Emax) values for each entry.
measured_on: human CB1 receptor (Homo sapiens, UniProt P21554)
Construct: host or cells: CHO-RD-HGA16 cells (CHO cells overexpressing promiscuous Galpha16)
Sequence (P21554 whole entry): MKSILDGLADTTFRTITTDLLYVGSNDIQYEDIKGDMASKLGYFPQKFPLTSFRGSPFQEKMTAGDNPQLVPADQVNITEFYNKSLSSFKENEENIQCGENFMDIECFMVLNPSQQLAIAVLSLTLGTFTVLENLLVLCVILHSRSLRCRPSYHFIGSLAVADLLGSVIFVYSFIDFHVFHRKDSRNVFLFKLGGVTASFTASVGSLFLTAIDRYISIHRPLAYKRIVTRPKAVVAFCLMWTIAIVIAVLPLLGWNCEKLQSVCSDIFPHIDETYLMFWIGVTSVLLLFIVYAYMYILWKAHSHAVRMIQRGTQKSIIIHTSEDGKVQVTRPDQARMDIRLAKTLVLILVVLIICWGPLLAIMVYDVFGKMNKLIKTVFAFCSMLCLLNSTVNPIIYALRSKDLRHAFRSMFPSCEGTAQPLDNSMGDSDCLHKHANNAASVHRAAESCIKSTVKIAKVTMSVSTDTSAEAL
method_notes: CB1 calcium mobilization assay, agonist screen
Type: cell-based
stated_conditions: Table 1; 10,000 nM final concentration; mean ± SD

Please review the entries below; each comes with its answer.
- smiles_representation: "O=C(Nc1ccc(Cl)cc1)Nc1cccc(-c2ccc(-c3ccccc3)cc2)c1"
  measured_on: "human CB1 receptor (Homo sapiens, UniProt P21554)"
  meas_value: "−0.7 ± 2.4 % CP55, 940 Emax"
- smiles_representation: "CC(C)(C)c1cc(-c2cccc(NC(=O)Nc3ccc(Cl)cc3)c2)cc(C(C)(C)C)c1"
  measured_on: "human CB1 receptor (Homo sapiens, UniProt P21554)"
  meas_value: "10.4 ± 2.1 % CP55, 940 Emax"
- smiles_representation: "O=C(Nc1ccc(Cl)cc1)Nc1cccc(N2C3CCC2CC3)c1"
  measured_on: "human CB1 receptor (Homo sapiens, UniProt P21554)"
  meas_value: "5.5 ± 1.3 % CP55, 940 Emax"

Now let's try a different one.
Input line: # returns recorded CB1 calcium assay Agonist screen (% CP55, 940 Emax) (system: human CB1 receptor (Homo sapiens, UniProt P21554)) for `O=C(Nc1ccc(Cl)cc1)Nc1cccc(-c2ccc(Cl)cc2)c1`
Output line: 21.3 ± 3.7 % CP55, 940 Emax

---

measured_on: human CB1 receptor (Homo sapiens)
Construct: host or cells: CHO-RD-HGA16 cells (CHO cells overexpressing promiscuous Galpha16)
method_notes: CB1 calcium mobilization assay (antagonist mode, against EC80 of CP55,940)
Type: cell-based
stated_conditions: Table 1; against EC80 (100 nM) of CP55,940; mean ± S.E.M.; read-out: CB1 calcium assay IC50
measured_attribute: pIC50
The scale used: pIC50 is minus the common logarithm of the concentration in molar units.

Please review the entries below; each comes with its answer.
- smiles_representation: "O=C(Nc1ccc(Cl)cc1)Nc1cccc(-c2nccs2)c1"
  meas_value: 6.81
- smiles_representation: "O=C(Nc1ccc(Cl)cc1)Nc1cccc(-c2cnc3ccccc3c2)c1"
  meas_value: 6.29
- smiles_representation: "O=C(Nc1ccc(Cl)cc1)Nc1cccc(-c2cncs2)c1"
  meas_value: 7.03
- smiles_representation: "O=C(Nc1ccc(Cl)cc1)Nc1cccc(-c2cc(Cl)cc(Cl)c2)c1"
  meas_value: 7.66
- smiles_representation: "O=C(Nc1ccc(Cl)cc1)Nc1cccc(-c2ccc3c(c2)OCO3)c1"
  meas_value: 7.15
- smiles_representation: "O=C(Nc1ccc(Cl)cc1)Nc1cccc(-c2ccc(Cl)cc2)c1"
  meas_value: 7.02
- smiles_representation: "O=C(Nc1ccc(Cl)cc1)Nc1cccc(-c2ncc[nH]2)c1"
  meas_value: 6.28
- smiles_representation: "O=C(Nc1ccc(Cl)cc1)Nc1cccc(-c2cccc(O)c2)c1"
  meas_value: 6.08

Input line: Item `COc1cccc(NC(=O)Nc2ccc(Cl)cc2)c1` has what recorded pIC50?
Output line: 6.28

---

measured_on: CB1 receptor (Mus musculus, UniProt P47746)
Sequence (P47746 whole entry): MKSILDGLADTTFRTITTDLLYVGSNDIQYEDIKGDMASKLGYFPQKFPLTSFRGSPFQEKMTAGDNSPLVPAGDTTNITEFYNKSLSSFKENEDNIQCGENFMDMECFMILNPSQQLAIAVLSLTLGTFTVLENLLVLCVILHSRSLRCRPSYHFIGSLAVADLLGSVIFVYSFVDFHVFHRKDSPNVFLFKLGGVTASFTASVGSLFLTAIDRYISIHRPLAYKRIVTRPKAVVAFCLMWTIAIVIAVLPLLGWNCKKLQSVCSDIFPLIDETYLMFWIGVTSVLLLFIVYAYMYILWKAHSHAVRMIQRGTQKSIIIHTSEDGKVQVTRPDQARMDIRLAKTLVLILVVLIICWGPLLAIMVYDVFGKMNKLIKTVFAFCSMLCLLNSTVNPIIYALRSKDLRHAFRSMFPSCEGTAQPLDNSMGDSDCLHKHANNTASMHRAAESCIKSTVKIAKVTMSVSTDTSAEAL
method_notes: [35S]GTP-γ-S binding assay in mouse cerebellar membranes, CP55,940-stimulated
stated_conditions: CP55,940 (100 nM) stimulation, mean (95% confidence interval)
measured_attribute: log10(IC50) (log10 of the value in nM)
Quick note: numbers are log10 of IC50, with nM as the unit.

Please review the entries below; each comes with its answer.
- smiles_representation: "O=C(Nc1ccc(Cl)cc1)Nc1cccc(-c2ccc[nH]2)c1"
  meas_value: 1.60
- smiles_representation: "O=C(Nc1ccc(Cl)cc1)Nc1cccc(-c2cnc3ccccc3c2)c1"
  meas_value: 2.81
- smiles_representation: "O=C(Nc1ccc(Cl)cc1)Nc1cccc(-c2cc(Cl)cc(Cl)c2)c1"
  meas_value: 2.48

Input line: # returns recorded log10(IC50) (system: CB1 receptor (Mus musculus, UniProt P47746)) for `O=C(Nc1ccc(Cl)cc1)Nc1cccc(-c2ccsc2)c1`
Output line: 2.21

Input line: # returns recorded log10(IC50) (system: CB1 receptor (Mus musculus, UniProt P47746)) for `Cc1cc(-c2cccc(NC(=O)Nc3ccc(Cl)cc3)c2)cs1`
Output line: 2.89

Input line: # returns recorded log10(IC50) (system: CB1 receptor (Mus musculus, UniProt P47746)) for `O=C(Nc1ccc(Cl)cc1)Nc1cccc(-c2ccc(F)cc2F)c1`
Output line: 2.55

Input line: # returns recorded log10(IC50) (system: CB1 receptor (Mus musculus, UniProt P47746)) for `O=C(Nc1ccc(Cl)cc1)Nc1cccc(N2CCC2)c1`
Output line: 3.14

Input line: # returns recorded log10(IC50) (system: CB1 receptor (Mus musculus, UniProt P47746)) for `O=C(Nc1ccc(Cl)cc1)Nc1cccc(-c2cccs2)c1`
Output line: 2.76

Input line: # returns recorded log10(IC50) (system: CB1 receptor (Mus musculus, UniProt P47746)) for `O=C(Nc1ccc(Cl)cc1)Nc1cccc(-c2nccs2)c1`
Output line: 3.10
